Reference source: patent US20250382344A1

Listing of entries alongside the reported EC50, CreLuc reporter, 100% hP.
Molecular target: T1, human neuropeptide Y2 receptor (human, UniProt P49146 1-381)
T1 sequence (looked up): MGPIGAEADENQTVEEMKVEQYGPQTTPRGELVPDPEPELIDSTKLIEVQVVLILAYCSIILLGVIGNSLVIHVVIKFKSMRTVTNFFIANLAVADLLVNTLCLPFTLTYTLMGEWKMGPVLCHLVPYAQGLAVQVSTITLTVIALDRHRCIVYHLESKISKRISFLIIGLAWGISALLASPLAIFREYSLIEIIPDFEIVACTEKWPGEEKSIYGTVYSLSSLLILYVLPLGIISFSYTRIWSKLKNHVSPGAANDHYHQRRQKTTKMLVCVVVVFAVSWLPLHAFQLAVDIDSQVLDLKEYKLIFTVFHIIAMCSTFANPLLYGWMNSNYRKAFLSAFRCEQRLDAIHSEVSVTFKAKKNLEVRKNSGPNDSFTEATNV
Assay: cell-based or functional assay
*1 amine or outer side, *2 acyl side, *3 side chain or, on linkers, in order; H or OH if unused. Where no end group is shown, it is not given here. Side-chain parts run from the residue outwards. [ ]: non-standard residue; d: D form. The star is where a group is joined. C20 diacid = O=C(O)CCCCCCCCCCCCCCCCCCC(=O)*; γGlu = O=C(O)[C@H](CCC(=O)[*:2])N[*:1]; εLys = N[C@@H](CCCCN[*:1])C(=O)[*:2]; Aib = CC(C)(N)C(=O)O
Please answer using the number first and the unit second.

Y[Aib]EGTFTSDYSI[Aib]LDEQAQ[Aib]AFVRHLINK([εLys-εLys-γGlu-γGlu-γGlu-γGlu-γGlu-C20 diacid])[Aib]TRQRY-NH2 [Compound 155]    63.1 nM
YXEGTFTSDYSIXLEKQAEXAFVRHLINKXTRQRY (Aib at 2, 13, 20, 30; Lys29 epsilon-amino: C20DA-gGlu-gGlu-gGlu-gGlu-gGlu-gGlu-eLys; C-terminal amide) [Compound 104]    129 nM
YXEGTFTSDYSIXLEKQAQXAFVRHLINKXTRQXY (Aib at 2, 13, 20, 30; bhArg at 34; Lys29 epsilon-amino: C18DA-gGlu-gGlu-gGlu-gGlu-gGlu-gGlu-eLys; C-terminal amide) [Compound 146]    89.8 nM

--- query ---
In: What EC50, CreLuc reporter, 100% hP value was documented for this binder, YXEGTFTSDYSIXLEKQAQXEFVRHLINKXTRQRY (Aib at 2, 13, 20, 30; Lys29 epsilon-amino: C18DA-gGlu-gGlu-gGlu-gGlu-gGlu-OEG-OEG; C-terminal amide) [Compound 98] ?
Out: 202 nM
